Target: JAK1 (Homo sapiens, UniProt P23458)
Sequence (P23458 whole entry): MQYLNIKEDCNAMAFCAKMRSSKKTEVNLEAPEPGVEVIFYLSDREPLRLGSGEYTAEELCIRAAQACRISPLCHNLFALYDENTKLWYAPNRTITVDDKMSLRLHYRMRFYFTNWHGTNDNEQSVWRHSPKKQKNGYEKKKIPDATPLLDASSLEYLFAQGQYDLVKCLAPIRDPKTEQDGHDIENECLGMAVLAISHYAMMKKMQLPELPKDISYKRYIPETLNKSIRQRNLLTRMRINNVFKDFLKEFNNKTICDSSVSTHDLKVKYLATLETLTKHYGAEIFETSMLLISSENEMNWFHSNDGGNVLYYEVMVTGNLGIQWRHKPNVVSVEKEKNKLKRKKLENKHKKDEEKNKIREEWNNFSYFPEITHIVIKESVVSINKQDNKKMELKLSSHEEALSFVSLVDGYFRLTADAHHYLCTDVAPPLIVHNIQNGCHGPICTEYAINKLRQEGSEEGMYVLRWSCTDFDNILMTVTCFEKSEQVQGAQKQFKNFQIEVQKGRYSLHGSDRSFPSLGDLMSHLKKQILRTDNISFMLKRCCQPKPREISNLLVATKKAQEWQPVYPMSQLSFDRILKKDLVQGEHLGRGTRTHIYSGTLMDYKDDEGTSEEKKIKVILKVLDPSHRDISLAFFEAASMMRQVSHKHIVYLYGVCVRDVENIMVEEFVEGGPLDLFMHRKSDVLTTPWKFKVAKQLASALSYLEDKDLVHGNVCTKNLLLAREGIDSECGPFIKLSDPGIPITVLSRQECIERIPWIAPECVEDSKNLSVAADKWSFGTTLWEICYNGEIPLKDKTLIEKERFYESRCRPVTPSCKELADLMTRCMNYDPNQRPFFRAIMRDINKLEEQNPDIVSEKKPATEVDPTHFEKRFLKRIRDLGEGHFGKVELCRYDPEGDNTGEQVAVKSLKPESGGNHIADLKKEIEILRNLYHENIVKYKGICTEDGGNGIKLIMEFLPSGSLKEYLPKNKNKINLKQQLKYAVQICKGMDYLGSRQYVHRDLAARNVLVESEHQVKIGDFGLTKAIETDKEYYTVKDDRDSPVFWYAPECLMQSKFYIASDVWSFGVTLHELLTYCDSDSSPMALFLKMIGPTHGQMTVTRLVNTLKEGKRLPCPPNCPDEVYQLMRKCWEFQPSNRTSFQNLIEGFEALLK
pIC50: −log10 of the molar value.
Assay Readout: pIC50

Record excerpt, results attached:
N#CCC(C1CC1)n1cc(-c2nc(-c3cn[nH]c3)cc3nccn23)cn1 (stereo not drawn)
6.00 to 7.00
CC(C)S(=O)(=O)N1CC(CC#N)(n2cc(-c3nc(-c4cnn(C)c4)cc4nccn34)cn2)C1
6.00 to 7.00
CN1CCC(c2ccc(-c3cc4nccn4c(-c4cnn(C(CC#N)C5CCCC5)c4)n3)cc2)CC1 (stereo not drawn) [Example 110]
7.00 to 8.00
Cn1cc(-c2cc3nccn3c(-c3cnn(C4(CC#N)CN(S(=O)(=O)C5CC5)C4)c3)n2)cn1
7.00 to 8.00

Task: Record N#CCC(C1CC1)n1cc(-c2nc(-c3cnn(CC(F)(F)F)c3)cc3nccn23)cn1 (stereo not drawn) : what is its pIC50 with JAK1 (Homo sapiens, UniProt P23458)?
Output: 7.00 to 8.00

Task: Record Cn1cc(-c2cc3ncc(Cl)n3c(-c3cnn(C4(CC#N)CN(CC(F)(F)F)C4)c3)n2)cn1 : what is its pIC50 with JAK1 (Homo sapiens, UniProt P23458)?
Output: 6.00 to 7.00

Task: Record Cn1cc(-c2cc3nccn3c(-c3cnn(C(CC#N)CC(C)(C)C)c3)n2)cn1 (stereo not drawn) : what is its pIC50 with JAK1 (Homo sapiens, UniProt P23458)?
Output: 6.00 to 7.00

Task: Record Cn1cc(-c2cc3nccn3c(-c3cnn(C4(CC#N)CN(CC(F)F)C4)c3)n2)cn1 : what is its pIC50 with JAK1 (Homo sapiens, UniProt P23458)?
Output: 6.00 to 7.00

Task: Record N#CCC(C1CC1)n1cc(-c2nc(-c3cnc4n3CCNC4)cc3nccn23)cn1 (stereo not drawn) : what is its pIC50 with JAK1 (Homo sapiens, UniProt P23458)?
Output: < 6.00
